Structures can show the parent of a compound that is named as a salt.
measuredProperty: melting point (°C)

>>> print(df.to_string())
                                   compound  endpointvalue
0  C[C@@H]1CCC[C@H](C)C1 [cis-1,3-dimethylcyclohexane]            -76

I. Nc1cccc(C(=O)O)c1
II. O=C1CCC2C3CCC(=O)C3C12 (centres undefined) [octahydrocyclobuta[1,2-a:3,4-a']dicyclopentene-1,6-dione]
Between I and II , which one shows the larger melting point value? Respond with the label that goes with your answer.
I
(I: 175 °C, II: 67 °C)

A. CC(C)(C)OC(=O)N1CCC[C@H](O)C1 [(S)-1-boc-3-hydroxypiperidine]
B. CCCCCO [1-pentanol]
C. CC(=O)N[C@H]1[C@H](OC(C)=O)O[C@H](COC(C)=O)[C@@H](OC(C)=O)[C@@H]1OC(C)=O [beta-D-glucosamine pentaacetate]
D. COC(=O)/C=C/C(=O)OC [dimethyl fumarate]
E. Clc1nsnc1-c1cccnc1
Descending sort on melting point required. Dear reader, please state the labels in the requested order.
C, D, E, A, B
